Reference source: patent US20230057987A1

molecular target: T1, CT45-IP alanine variant, position 8 peptide on HLA-A*02:01 (human); assay: killing
T1 peptide: KIFEMLEAV
measurementType: binding result

INSERT INTO results (binder, measurementtype, observed) VALUES
  ('TCR-2 (TCR, V domains shown) Valpha: QKITQTQPGMFVQEKEAVTLDCTYDTSDQSYGLFWYKQPSSGEMIFLIYQGSYDEQNATEGRYSLNFQKARKSANLVISASQLGDSAMYFCAMREGSDAGGTSYGKLTFGQGTILTVHP Vbeta: GVIQSPRHLIKEKRETATLKCYPIPRHDTVYWYQQGPGQDPQFLISFYEKMQSDKGSIPDRFSAQQFSDYHSELNMSSLELGDSALYFCASSPSTGRLNTEAFFGQGTRLTVV', 'binding result', 'recognises'),
  ('TCR-3 (TCR, V domains shown) Valpha: QKITQTQPGMFVQEKEAVTLDCTYDTSDQSYGLFWYKQPSSGEMIFLIYQGSYDEQNATEGRYSLNFQKARKSANLVISASQLGDSAMYFCGYSNYQLIWGAGTKLIIKP Vbeta: QVTQNPRYLITVTGKKLTVTCSQNMNHEYMSWYRQDPGLGLRQIYYSMNVEVTDKGDVPEGYKVSRKEKRNFPLILESPSPNQTSLYFCASREGTGGYQPQHFGDGTRLSIL', 'binding result', 'recognises');
